Catalogue of molecules with associated inhibition
test system: Tyrosine-protein kinase ABL1 (Homo sapiens), P00519 [M351T]; details: at 0.1 µM
Express it in %; write the number only.

// worked examples, inhibition included
Cc1ccc(C(=O)NC2CCCCC2)cc1-c1ccc(C(=O)NCC2CC2)cc1 | 3.58
Nc1nc(-c2ccc3c(c2)C(=Cc2cc(Br)c(O)c(Br)c2)C(=O)N3)cs1 | -0.05
CNC(=O)c1cncc(/C=C/c2c(Cl)cccc2Cl)c1 | 6.02
CCn1c(-c2nonc2N)nc2ccncc21 | 0.64
COc1ccc(COc2ccc(Cc3cnc(N)nc3N)cc2OC)cc1 | 3.17

Query string: Entry under review: NCc1ccc(-c2nc(-c3ccc(Cl)c(O)c3)c(-c3ccncc3)[nH]2)cc1 . Reported inhibition?
Result string: 11.2

Query string: Given the entry CC1=C(C(=O)Nc2ccc3[nH]ncc3c2)C(c2ccc3ccccc3c2)CC(=O)N1 (configuration not stated) , report its measured inhibition.
Result string: 3.47

meta.source: ChEMBL document CHEMBL1961873
